Tested on: LG0703-F948-PDC complex spheroid viability;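 further: spheroids exposed to agents for 7 days; 100% = DMSO vehicle wells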
experimental_protocol: Anticancer human tumor LG0703-F948-PDC patient-derived lung adenocarcinoma cell line growth inhibition [RAS]
run_conditions: second compound 0.316 µM; first compound 0.0316 µM; hits give low values
measured_property: viability, T/C

Query: What value of viability, T/C has been reported for the following molecule? CCN1CCN(Cc2ccc(Nc3ncc(F)c(-c4cc(F)c5nc(C)n(C(C)C)c5c4)n3)nc2)CC1 + C#Cc1c(F)ccc2cc(O)cc(-c3ncc4c(N5CC6CCC(C5)N6)nc(OCC56CCCN5CC(F)C6)nc4c3F)c12
Result: 84.5%

Query: // query viability, T/C value for entry C=CC(=O)Nc1cc(Nc2nccc(-c3cn(C)c4ccccc34)n2)c(OC)cc1N(C)CCN(C)C + C#Cc1c(F)ccc2cc(O)cc(-c3ncc4c(N5CC6CCC(C5)N6)nc(OCC56CCCN5CC(F)C6)nc4c3F)c12
Result: 15.6%

Query: I have this molecule here, CC1(O)CCCC1n1c(=O)c(C(F)F)cc2cnc(NC3CCN(S(C)(=O)=O)CC3)nc21 (stereo not drawn) + C#Cc1c(F)ccc2cc(O)cc(-c3ncc4c(N5CC6CCC(C5)N6)nc(OCC56CCCN5CC(F)C6)nc4c3F)c12 , and I need its recorded viability, T/C.
Result: 83.9%
